Assay: Drug uptake in C57BL6 mouse liver at 10 mg/kg, po after 24 hrs
Format: ADME, organism-based
Parameters: dose 10 mg/kg, route oral
Details: read-out: Drug uptake

- molecule: "Cl.NC1C[C@H]2CC[C@@H](C1)N2C(=O)[C@H](Cc1ccc(Br)cc1)NC(=O)C1(c2ccc(OC(F)(F)F)cc2)CC1 (stereo partly specified)"
  concentration at 24 h (µM): 5.9

* * *

Listing of entries alongside the reported metabolised at 0.5 h, 15 µM.
Assay: Metabolic stability in mouse liver microsome assessed as compound conversion at 15 uM after 30 mins
Type: ADME
Conditions: liver microsomes, read-out: Drug metabolism
reported_property: metabolised at 0.5 h, 15 µM (%)

- compound: "CN1CCN(C(=O)[C@H](Cc2ccccc2)NC(=O)C2(c3ccc(Cl)cc3Cl)CC2)CC1"
  numeric_result: 80
- compound: "CN1CCN(C(=O)[C@H](Cc2c[nH]c3ccccc23)NC(=O)C2(c3ccc(Cl)cc3Cl)CC2)CC1"
  numeric_result: 90
- compound: "CN1CCN(C(=O)[C@H](Cc2ccc(Br)cc2)NC(=O)C2(c3ccc(Cl)cc3Cl)CC2)CC1"
  numeric_result: 90
- compound: "NC1CCN(C(=O)[C@H](Cc2ccc(Br)cc2)NC(=O)C2(c3ccc(Cl)cc3Cl)CC2)CC1"
  numeric_result: 50
- compound: "C[C@H]1CN(C(=O)[C@H](Cc2ccc(Cl)cc2Cl)NC(=O)C2(c3ccc(Cl)cc3Cl)CC2)CCN1"
  numeric_result: 40
- compound: "C[C@@H]1CN(C(=O)[C@H](Cc2ccc(Cl)cc2Cl)NC(=O)C2(c3ccc(Cl)cc3Cl)CC2)CCN1"
  numeric_result: 30
- compound: "NC1C[C@H]2CC[C@@H](C1)N2C(=O)[C@H](Cc1ccc(Cl)cc1Cl)NC(=O)C1(c2ccc(Cl)cc2Cl)CC1 (stereo partly drawn)"
  numeric_result: 20
- compound: "NC1CCCC(NC(=O)[C@H](Cc2ccc(Cl)cc2Cl)NC(=O)C2(c3ccc(Cl)cc3Cl)CC2)C1 (stereo partly drawn)"
  numeric_result: 10

These measurements were taken from ChEMBL document CHEMBL2163189.
